target: Bcl-xL, Q07817; test: peptide SPOT array, c-Myc-tagged receptor at 1 uM or 100 nM, anti-c-Myc-Cy3
Sequence (Q07817 1-209): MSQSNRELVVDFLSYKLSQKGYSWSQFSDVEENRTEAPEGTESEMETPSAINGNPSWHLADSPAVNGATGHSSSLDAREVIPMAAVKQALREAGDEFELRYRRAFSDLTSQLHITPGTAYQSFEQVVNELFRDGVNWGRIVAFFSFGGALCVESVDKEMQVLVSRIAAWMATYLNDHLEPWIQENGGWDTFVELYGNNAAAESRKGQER
Reported property: SPOT signal as a fraction of Bim BH3's signal on the same receptor and array
Numbers only.

Known results for binders:
GAQHSTMTSTLRRLGEDIFKGVVTKG [CCDC138] = 0.12
AIPRAEVAELLVHSGDFLVRESQGKQ [FES] = 0.03
LMARPAVALHDQSIADGFKEAVRYVL [SOS2] = 0.17

Please find the next binder below.
// WRERPDVGRYLRELSGSGLERLRREP [COG8] : SPOT signal as a fraction of Bim BH3's signal on the same receptor and array value = 0.09
